All figures here come from patent US20240018108A1.

- Test system: AML cell lines (MOLM13 and OCI-AML3)
- experiment-description: MTS cell proliferation assay, AML cell lines
- Type: cell-based
- condition-context: range over the two AML cell lines, one study; read-out: growth arrest in AML cell lines, IC50 range
test-readout: IC50

Prompt: Please supply the value of reported IC50 for the item CCOc1ccc(-c2ccc(-c3cc(C(=O)O)c4cc(F)ccc4n3)cc2F)cc1 [Cpd1]
Response: 14.5 to 19.5 nM

---

- target-entity: UniProtKB Q02127
- Sequence (Q02127 whole entry): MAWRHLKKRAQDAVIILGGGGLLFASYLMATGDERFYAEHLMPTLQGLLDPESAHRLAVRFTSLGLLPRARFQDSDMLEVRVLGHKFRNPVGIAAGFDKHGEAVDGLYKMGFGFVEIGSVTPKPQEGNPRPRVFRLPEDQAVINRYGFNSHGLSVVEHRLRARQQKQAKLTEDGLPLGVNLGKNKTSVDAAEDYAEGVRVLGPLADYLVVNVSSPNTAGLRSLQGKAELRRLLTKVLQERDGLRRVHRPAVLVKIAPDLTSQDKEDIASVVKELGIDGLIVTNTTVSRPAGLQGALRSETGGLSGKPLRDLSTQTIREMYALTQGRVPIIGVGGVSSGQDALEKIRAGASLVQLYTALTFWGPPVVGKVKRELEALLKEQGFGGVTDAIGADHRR
- experiment-description: DHODH enzymatic assay (DCIP reduction)
- condition-context: recombinant human enzyme, 25° C., pH 8.0
test-readout: IC50

Known results for compounds:
CCCCOc1cccc(-c2ccc(-c3cc(C(=O)O)c4cc(F)ccc4n3)c(Cl)c2)c1 = < 0.51 nM
CCOc1cccc(-c2ccc(-c3cc(C(=O)O)c4cc(F)ccc4n3)cc2F)c1 = < 0.5 nM
CCCCOc1cccc(-c2cc(F)c(-c3cc(C(=O)O)c4cc(F)ccc4n3)cc2F)c1 = < 0.51 nM
CCOc1cccc(-c2cc(F)c(-c3cc(C(=O)O)c4cc(F)ccc4n3)cc2F)c1 = < 0.51 nM
CCCCOc1cccc(-c2ccc(-c3cc(C(=O)O)c4cc(F)ccc4n3)cc2C)c1 = < 0.51 nM
CCCCOc1cccc(-c2ccc(-c3cc(C(=O)O)c4cc(F)ccc4n3)c(C)c2)c1 = < 0.51 nM
CCOc1cccc(-c2ccc(-c3cc(C(=O)O)c4cc(F)ccc4n3)cc2Cl)c1 = 0.6 nM
CCOc1ccc(-c2ccc(-c3cc(C(=O)O)c4cc(F)ccc4n3)cc2F)cc1 = 2.43 nM

Prompt: Please supply the value of reported IC50 for the item CCCCOc1cccc(-c2ccc(-c3cc(C(=O)O)c4cc(F)ccc4n3)cc2F)c1
Response: < 0.5 nM

Prompt: Please supply the value of reported IC50 for the item CCOc1cccc(-c2ccc(-c3cc(C(=O)O)c4cc(F)ccc4n3)cc2C)c1
Response: 1.4 nM

Prompt: Please supply the value of reported IC50 for the item CCOc1cccc(-c2ccc(-c3cc(C(=O)O)c4cc(F)ccc4n3)c(F)c2)c1
Response: 0.7 nM
